Give EC50 for every item shown.
- Tgt: UniProt P13569
- Sequence (P13569 whole entry): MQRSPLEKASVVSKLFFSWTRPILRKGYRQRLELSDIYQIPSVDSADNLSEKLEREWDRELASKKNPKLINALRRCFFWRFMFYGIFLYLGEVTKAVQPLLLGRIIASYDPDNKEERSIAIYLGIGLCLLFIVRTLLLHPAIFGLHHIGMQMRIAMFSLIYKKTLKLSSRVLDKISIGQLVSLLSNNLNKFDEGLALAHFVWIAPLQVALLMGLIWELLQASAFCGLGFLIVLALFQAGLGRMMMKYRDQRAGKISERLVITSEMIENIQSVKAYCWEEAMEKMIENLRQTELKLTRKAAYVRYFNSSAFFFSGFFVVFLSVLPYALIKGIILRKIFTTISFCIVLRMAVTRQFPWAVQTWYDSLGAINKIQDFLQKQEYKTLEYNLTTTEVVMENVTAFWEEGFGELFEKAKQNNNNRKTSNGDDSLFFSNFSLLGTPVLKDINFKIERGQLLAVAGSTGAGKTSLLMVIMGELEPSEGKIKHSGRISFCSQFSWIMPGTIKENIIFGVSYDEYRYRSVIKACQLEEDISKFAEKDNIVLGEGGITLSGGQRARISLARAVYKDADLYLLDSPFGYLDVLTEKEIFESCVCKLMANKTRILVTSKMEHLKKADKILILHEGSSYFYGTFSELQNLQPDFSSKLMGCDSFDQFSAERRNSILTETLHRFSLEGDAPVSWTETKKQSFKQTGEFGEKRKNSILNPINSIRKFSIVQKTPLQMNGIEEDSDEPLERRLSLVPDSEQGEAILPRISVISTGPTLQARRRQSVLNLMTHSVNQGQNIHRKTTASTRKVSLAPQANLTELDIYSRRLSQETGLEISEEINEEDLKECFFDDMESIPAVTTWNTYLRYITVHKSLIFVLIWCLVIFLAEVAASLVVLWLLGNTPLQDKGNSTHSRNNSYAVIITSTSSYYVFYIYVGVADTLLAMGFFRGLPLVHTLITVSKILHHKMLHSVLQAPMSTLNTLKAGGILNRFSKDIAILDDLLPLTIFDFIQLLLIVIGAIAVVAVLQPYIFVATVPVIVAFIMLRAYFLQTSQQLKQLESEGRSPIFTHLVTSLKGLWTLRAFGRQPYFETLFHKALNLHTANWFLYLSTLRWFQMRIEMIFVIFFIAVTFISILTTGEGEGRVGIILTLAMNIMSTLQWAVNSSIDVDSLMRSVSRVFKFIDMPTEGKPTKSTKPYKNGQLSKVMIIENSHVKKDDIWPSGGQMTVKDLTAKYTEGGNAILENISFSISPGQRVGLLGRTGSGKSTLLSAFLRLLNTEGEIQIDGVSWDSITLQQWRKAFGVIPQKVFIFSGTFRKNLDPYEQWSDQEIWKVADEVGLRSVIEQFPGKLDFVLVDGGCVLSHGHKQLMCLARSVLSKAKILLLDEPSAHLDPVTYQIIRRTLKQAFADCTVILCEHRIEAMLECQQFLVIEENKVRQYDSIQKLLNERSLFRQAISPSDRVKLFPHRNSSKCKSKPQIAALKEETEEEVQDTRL
- Test Name: Cell-based YFP assay
- Set-up: expressed in transfected cells; host or cells: CHO-K1 (Chinese hamster ovary)
- Details: CHO-K1 cells expressing human wild type-CFTR and YFP-H148Q/I152L; forskolin 20 μM = 100% activity; read-out: Cell-based YFP Assay (EC50) Concentration Range

Q: Let me know recorded EC50 for `COCCOCOc1ccc(NC(=O)c2cc3nccc(-c4ccc(OC)c(OC)c4)n3n2)cc1` , thanks.
Result: < 200 nM

Q: Look up and state reported EC50 for `COc1ccc(-c2ccnc3cc(C(=O)NC(=Cc4ccccc4)C(=O)O)nn23)cc1OC`
Result: ≥ 2000 nM

Q: Return EC50 for the following compound: `COc1ccc(-c2ccnc3cc(C(=O)N4CCN(C(=O)COC(C)=O)CC4)nn23)cc1OC`
Result: ≥ 2000 nM

Q: Entry `COC(=O)c1ccc(NC(=O)c2cc3nccc(-c4ccccc4)n3n2)cc1` needs its EC50 filled in; supply it.
Result: ≥ 2000 nM

Q: Identify measured EC50 corresponding to `COc1ccc(-c2ccnc3cc(C(=O)N4C[C@@H](C)N[C@@H](C)C4)nn23)cc1OC`
Result: 200 to 2000 nM

Q: Report measured EC50; entry is `COc1ccc(-c2ccnc3cc(C(=O)NC(=Cc4ccccc4)C(=O)N4CCN(C)CC4)nn23)cc1OC`
Result: < 200 nM

Q: Answer with reported EC50 of `COc1ccc(-c2ccnc3cc(C(=O)N[C@H]4CC[C@@H](C(N)=O)CC4)nn23)cc1OC`
Result: ≥ 2000 nM

Q: For `COc1ccc(-c2ccnc3cc(C(=O)Nc4ccc(NC(=O)[C@@H](NC(=O)OC(C)(C)C)C(C)C)cc4)nn23)cc1OC` , write its EC50.
Result: < 200 nM

###

- Test Name: Phosphate-buffered saline (PBS) solubility of compounds
- Assay type: physicochemical
- Details: aqueous buffer, thermodynamic from solid, PBS pH 7.5, 0.5 mg/mL, vortexed 90 min, filtered, LC-MS/MS, read-out: Solubility Range
Quantity Name: solubility at 90 min

Q: Return solubility at 90 min (reported value) for this compound: COC(=O)c1cccc(NC(=O)c2cc3nccc(-c4ccc(OC)c(OC)c4)n3n2)c1 [Compound 8]
Result: < 0.1 µg/mL

Q: Specify measured solubility at 90 min for COc1ccc(-c2ccnc3cc(C(=O)Nc4cccc(C(=O)N5CCOCC5)c4)nn23)cc1OC [Compound 55] .
Result: < 0.1 µg/mL

Q: Provide measured solubility at 90 min value, entry: COc1ccc(-c2ccnc3cc(C(=O)Nc4cccc(C(=O)O)c4)nn23)cc1OC [Compound 16]
Result: > 10 µg/mL

Q: Write down solubility at 90 min measured for item COc1ccc(-c2ccnc3cc(C(=O)N[C@H]4CC[C@H](C(=O)N5CCOCC5)CC4)nn23)cc1OC [Compound 75]
Result: > 10 µg/mL

Q: Kindly indicate its recorded solubility at 90 min. Item: COc1ccc(-c2ccnc3cc(C(=O)Nc4ccc(C(=O)O)cc4F)nn23)cc1OC [Compound 156]
Result: 0.1 to 10 µg/mL

Q: Entry COc1ccc(-c2ccnc3cc(C(=O)Nc4ccc(C(=O)N5CCOCC5)cc4C)nn23)cc1OC [Compound 127] needs its solubility at 90 min filled in; supply it.
Result: < 0.1 µg/mL

Q: Give the value of solubility at 90 min reported for the following: CCOc1ccc(NC(=O)Nc2cc3nccc(-c4ccc(OC)c(OC)c4)n3n2)cc1 [Compound 109]
Result: < 0.1 µg/mL

Q: Dear colleague, please send me the reported solubility at 90 min for COc1ccc(-c2ccnc3cc(C(=O)Nc4ccc(C(=O)N5CCOCC5)cn4)nn23)cc1OC [Compound 135] when you can.
Result: < 0.1 µg/mL

Q: Tell us which solubility at 90 min value is on record for COc1ccc(-c2ccnc3cc(C(=O)Nc4ccc(N)cc4)nn23)cc1OC [Compound 257]
Result: < 0.1 µg/mL

Q: Read off the recorded solubility at 90 min for COC(=O)c1ccc(NC(=O)c2cc3nccc(-c4ccc(OC)c(OC)c4)n3n2)cc1O [Compound 167]
Result: < 0.1 µg/mL

Q: Return the recorded solubility at 90 min value; entry: COc1ccc(-c2ccnc3cc(C(=O)Nc4ccc(C(=O)N5CC6(CN(C)C6)C5)cc4)nn23)cc1OC [Compound 166]
Result: < 0.1 µg/mL

Q: Supply measured solubility at 90 min of COc1ccc(-c2ccnc3cc(C(=O)Nc4ccc(C(=O)OCCN5CCOCC5)cc4)nn23)cc1OC [Compound 164] in your reply.
Result: < 0.1 µg/mL

Q: Respond only with solubility at 90 min recorded for COc1ccc(-c2ccnc3cc(C(=O)Nc4ccc(NC(=O)OC(C)(C)C)cc4)nn23)cc1OC [Compound 256]
Result: < 0.1 µg/mL

Q: Check the records and state solubility at 90 min for COc1ccc(-c2ccnc3cc(C(=O)Nc4ccc(C(=O)NCCN5CCOCC5)cc4)nn23)cc1OC [Compound 139]
Result: < 0.1 µg/mL

Q: Determine its reported solubility at 90 min: COc1ccc(-c2ccnc3cc(C(=O)Nc4ccc(C(=O)N5CCOCC5)c(Cl)c4)nn23)cc1OC [Compound 160]
Result: < 0.1 µg/mL

Q: Entry COc1ccc(-c2ccnc3cc(C(=O)N4CCN(C(=O)c5c(F)c(F)c(F)c(F)c5F)[C@@H](C)C4)nn23)cc1OC [Compound 259] needs its solubility at 90 min filled in; supply it.
Result: 0.1 to 10 µg/mL

Q: Entry COC(=O)[C@H](Cc1ccccc1)NC(=O)c1ccc(NC(=O)c2cc3nccc(-c4ccc(OC)c(OC)c4)n3n2)cc1 [Compound 46] needs its solubility at 90 min filled in; supply it.
Result: < 0.1 µg/mL

Q: Look up and state reported solubility at 90 min for COc1ccc(-c2ccnc3cc(C(=O)Nc4ccc(NC(=O)[C@@H](NC(=O)OC(C)(C)C)C(C)C)cc4)nn23)cc1OC [Compound 282]
Result: < 0.1 µg/mL

Q: Respond only with solubility at 90 min recorded for COC(=O)c1ccc(NC(=O)c2cc3nccc(-c4ccc(OC)c(OC)c4)n3n2)cc1 [Compound 11]
Result: < 0.1 µg/mL

Q: State its solubility at 90 min for this compound: COc1ccc(-c2ccnc3cc(C(=O)Nc4ccc(C(=O)N5CCOCC5)c(O)c4)nn23)cc1OC [Compound 169]
Result: < 0.1 µg/mL

Q: Supply solubility at 90 min value. Item: COc1ccc(-c2ccnc3cc(C(=O)Nc4ccccc4)nn23)cc1OC [Compound 1]
Result: < 0.1 µg/mL

Q: Check the records and state solubility at 90 min for COC(=O)c1ccccc1NC(=O)c1cc2nccc(-c3ccc(OC)c(OC)c3)n2n1 [Compound 7]
Result: < 0.1 µg/mL

Q: Specify measured solubility at 90 min for COc1ccc(-c2ccnc3cc(C(=O)Nc4ccc(N5CCN(C)CC5)cn4)nn23)cc1OC [Compound 204] .
Result: < 0.1 µg/mL

Q: For COc1ccc(-c2ccnc3cc(C(=O)Nc4ccc(NC(=O)CN)cc4)nn23)cc1OC [Compound 283] , write its solubility at 90 min.
Result: < 0.1 µg/mL

Q: Indicate the recorded solubility at 90 min value for this compound: COc1ccc(-c2ccnc3cc(C(=O)Nc4ccc(C(=O)N[C@H](C(=O)N5CCN(C)CC5)C(C)C)cc4)nn23)cc1OC [Compound 146]
Result: < 0.1 µg/mL

Q: Give the measured solubility at 90 min for COc1ccc(-c2ccnc3cc(C(=O)Nc4ccc(N5CC=CCC5)cc4)nn23)cc1OC [Compound 273]
Result: < 0.1 µg/mL

Q: Using known records, supply solubility at 90 min for COC(=O)[C@H](CO)NC(=O)c1ccc(NC(=O)c2cc3nccc(-c4ccc(OC)c(OC)c4)n3n2)cc1 [Compound 43]
Result: < 0.1 µg/mL

Q: Give the measured solubility at 90 min for COc1ccc(-c2ccnc3cc(C(=O)NC45CCC(C(=O)O)(CC4)CC5)nn23)cc1OC [Compound 149]
Result: > 10 µg/mL

Q: Return value of solubility at 90 min for input COc1ccc(-c2ccnc3cc(C(=O)Nc4ccc(C(=O)N[C@H](C(=O)N5CCOCC5)C(C)C)cc4)nn23)cc1OC [Compound 147] , no commentary.
Result: < 0.1 µg/mL

Q: Return value of solubility at 90 min for input COc1ccc(-c2ccnc3cc(C(=O)NC4CCCCC4)nn23)cc1OC [Compound 2] , no commentary.
Result: < 0.1 µg/mL
